Hello, the source for this data is PubChem BioAssay (NCI), in case you need it.

- ASSAY INFO: NCI Yeast Anticancer Drug Screen. Data for the mec2-1 strain (AID 157)
- TEST CONTEXT: S. cerevisiae mec2-1 strain, at 33.0 µM, hits give high values
The panel holds about 79,000 compounds, 15% with a hit somewhere; the sample as a whole holds those more often. Active and inactive are the calls of the source. Rule as the data show it: active = growth inhibition above about 70%; inactive = the rest.
READOUT: growth inhibition

[[record]]
molecule = "[Pt].c1ccc(P(CCP(c2ccccc2)c2ccccc2)CCP(c2ccccc2)c2ccccc2)cc1"
data_value = "94% (active)"

[[record]]
molecule = "O=C(O)C1C2C=CC(C2)C1c1ccccc1 (stereo unspecified)"
data_value = "-1% (inactive)"


Sample C[C@]12CC[C@H](O)CC1=CC[C@@H]1[C@@H]2CC[C@]2(C)C(=O)CC[C@@H]12 ; growth inhibition observed: 79% (active)

Sample COc1ccc(OC)c(/C=C/[N+](=O)[O-])c1 ; growth inhibition observed: 30% (inactive)

Sample C/C(=N\N=C(N)N)C(CN1CCOCC1)C(c1ccccc1)c1c(O)c2ccccc2oc1=O (stereo unspecified) ; growth inhibition observed: 8% (inactive)

Sample Cc1ccc2nc3sc(=O)sc3nc2c1 ; growth inhibition observed: 98% (active)

Sample Nc1nc(-c2ccccc2)c(-c2ccccc2)[se]1 ; growth inhibition observed: 3% (inactive)

Sample CC1=C(CO)C2=C(C)C3(CC3)[C@@](C)(O)C(=O)C2=C1 ; growth inhibition observed: 19% (inactive)

Sample NC1=NCC(c2ccc(Cl)cc2)O1 (stereo unspecified) ; growth inhibition observed: 1% (inactive)

Sample O=C1OC2C(O1)C1(Cl)C(Cl)=C(Cl)C2(Cl)C1(Cl)Cl (stereo unspecified) ; growth inhibition observed: -3% (inactive)

Sample CCOC(=O)C1([Se]c2ccccc2)CCCC1=O (stereo unspecified) ; growth inhibition observed: 30% (inactive)

Sample CC(C)CC(NC(=O)C(N)C(C)C)C(=O)NC(CCCCN)C(=O)Nc1ccc(N(CCCl)CCCl)cc1 (stereo unspecified) ; growth inhibition observed: -17% (inactive)

Sample O=C(c1ccccc1)C1C(c2ccccc2[N+](=O)[O-])N1C1CCCCC1 (stereo unspecified) ; growth inhibition observed: 66% (inactive)

###

- ASSAY INFO: NCI Yeast Anticancer Drug Screen. Data for the mec2-1 strain (AID 157)
- TEST CONTEXT: S. cerevisiae mec2-1 strain, at 50.0 µM
- Procedure: Growth inhibition of yeast strains with defined genetic alterations is measured as a screen for potential anti-cancer activity. Selected strains with alterations in DNA damage repair or cell cycle control were exposed to compounds and growth inhibition was measured relative to vehicle treated controls. The strain used in this assay is mec2-1
Compounds without any hit were thinned out: in the full panel of roughly 79,000, 15% have a hit. The source made the active and inactive calls. Cut-off read from the data, not from the text of the source: active = growth inhibition above about 70%; inactive = the rest.
Hi there, use one of these labels in your reply, thanks! active, inactive

INPUT: Recorded test outcome, item CC[N+](C)(CC)CCNC(=O)C(O)(c1ccccc1)c1ccccc1
OUTPUT: active

INPUT: Recorded test outcome, item Nc1nnc(N)n1-n1c(N)nnc1N
OUTPUT: inactive

INPUT: Recorded test outcome, item O=[N+]([O-])c1csc([N+](=O)[O-])c1
OUTPUT: active

###

- ASSAY INFO: NCI Yeast Anticancer Drug Screen. Data for the wt2 strain (AID 169);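 also: 0% = growth of vehicle-treated yeast cultures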
- TEST CONTEXT: S. cerevisiae wt2 strain growth inhibition; at 11.0 µM; hits give high values
This is part of a sample that, as a whole, favours compounds with a hit. Of some 79,000 tested, about 15% had one in any assay.
Listing of entries alongside the reported growth inhibition.
Answer in %, number only, no unit symbol.

Solved entries:
[[record]]
molecule = "OC1CCCC2CCC[N-]C12.OC1CCCC2CCC[N-]C12.[O]=[V][OH] (stereo not given)"
data_value = 92

[[record]]
molecule = "Nc1nnc(N)n1-n1c(N)nnc1N"
data_value = -5

[[record]]
molecule = "O=C1C=C(CN(CCCl)CCCl)C(=O)C=C1CN(CCCl)CCCl"
data_value = -1

[[record]]
molecule = "OCC(O)C(O)CO (stereo not given) (tested in a mixture with another compound)"
data_value = 0

[[record]]
molecule = "C[N+](C)(C)CC1CCCC(C[N+](C)(C)C)C1=O (stereo not given)"
data_value = 2

[[record]]
molecule = "CC[C@]1(O)CC(OC2CC(N(C)C)C(O)C(C)O2)c2c(cc3c(c2O)C(=O)c2c(O)cccc2C3=O)[C@@H]1C(=O)OC (stereo not given in full)"
data_value = 41


Sample O=C(O)C1C2c3ccccc3C(c3ccccc32)C1C(=O)O (stereo not given) ; growth inhibition observed: 5

Sample CCC1(O)C(=O)OCc2c1cc1n(c2=O)Cc2c-1nc1ccccc1c2OC (stereo not given) ; growth inhibition observed: -10

Sample O=[N+]([O-])c1oc2ccc3ccccc3c2c1CCO ; growth inhibition observed: 80

Sample CC1=C[C@H]2O[C@@H]3C[C@H]4OC(=O)/C=C\C=C\C(C(C)O)OCC(O)C(C)CC(=O)OC[C@@]2(C[C@@H]1O)[C@]4(C)[C@@]31CO1 (stereo not given in full) ; growth inhibition observed: 78

###

- ASSAY INFO: NCI Yeast Anticancer Drug Screen. Data for the mec2-1 strain (AID 157)
- TEST CONTEXT: S. cerevisiae mec2-1 strain, at 5.0 µM (retest, dose inferred, filed as 0.5), hits give high values
The panel holds about 79,000 compounds, 15% with a hit somewhere; the sample as a whole holds those more often. The source made the active and inactive calls. No stated cut-off is given here; in the data, active means growth inhibition above about 70%; inactive means the rest.
READOUT: growth inhibition

[[record]]
compound = "CO/C(N)=C(\\C#N)N=Cc1cccnc1"
data_value = "25% (inactive)"

[[record]]
compound = "CCCCN(CCCC)CCc1ccc(OC(=O)c2ccc(N)cc2)cc1"
data_value = "23% (inactive)"

[[record]]
compound = "COc1ccc(C(Cc2ccc(Cl)c(Cl)c2)NCCO)cc1 (stereo not given)"
data_value = "-5% (inactive)"


Sample CCC[CH2][Sn]1([CH2]CCC)[O]C(=O)c2cc(C)ccc2[O]1 ; growth inhibition observed: 89% (active)

Sample O=[N+]([O-])c1ccc(-n2nc3ccc4c(no[n+]4[O-])c3[n+]2[O-])c([N+](=O)[O-])c1 ; growth inhibition observed: 23% (inactive)

Sample CC1=C[C@H]2O[C@@H]3C[C@H]4OC(=O)/C=C\C=C\C(C(C)O)OCC(O)C(C)CC(=O)OC[C@@]2(C[C@@H]1O)[C@]4(C)[C@@]31CO1 (stereo not given in full) ; growth inhibition observed: 40% (inactive)

Sample c1ccc(NC2=NCCN2)nc1 ; growth inhibition observed: -26% (inactive)

Sample O=c1oc2ccccc2c(O)c1C(c1ccc(/C=C/c2ccccc2)cc1)c1c(O)c2ccccc2oc1=O ; growth inhibition observed: 36% (inactive)

Sample CSC(=Nc1ccccc1)N(c1ccccc1)c1nc(=[N+](C)C)ss1 ; growth inhibition observed: 26% (inactive)

Sample Cc1oc2c([N+](=O)[O-])cccc2c1[N+](=O)[O-] ; growth inhibition observed: 99% (active)

###

- ASSAY INFO: NCI Yeast Anticancer Drug Screen. Data for the sgs1 strain (AID 173);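 also: 0% = growth of vehicle-only control cultures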
- TEST CONTEXT: S. cerevisiae sgs1 mutant, at 1.2 µM, hits give high values
Compounds without any hit were thinned out: in the full panel of roughly 79,000, 15% have a hit. Calls of active or inactive are those of the source. Rule as the data show it: active = growth inhibition above about 70%; inactive = the rest.
Listing of entries alongside the reported growth inhibition.

Solved entries:
[[record]]
compound = "CCOP(=S)(S)OCC.[Pd]"
readout = "growth inhibition"
data_value = "13% (inactive)"

[[record]]
compound = "CCN(CCCl)CCCCNc1c2ccccc2nc2ccc(OC)cc12"
readout = "growth inhibition"
data_value = "46% (inactive)"

[[record]]
compound = "CCCCCCCCCCCCCCCCP(=O)(O)OCC(N)C(=O)O (centres undefined)"
readout = "growth inhibition"
data_value = "-31% (inactive)"

[[record]]
compound = "Cc1cc[n+](C2=C(Nc3cccc(C(F)(F)F)c3)C(=O)c3ccccc3C2=O)cc1"
readout = "growth inhibition"
data_value = "0% (inactive)"

[[record]]
compound = "C/C(=N\\NC(N)=O)C(CN1CCOCC1)C(c1ccccc1)c1c(O)c2ccccc2oc1=O (centres undefined)"
readout = "growth inhibition"
data_value = "-2% (inactive)"


Sample COC(COC(=O)N1CCN(C=O)CC1)C1=C(N2CC2)C(=O)C(C)=C(N2CC2)C1=O (centres undefined) ; growth inhibition observed: 20% (inactive)

Sample Nc1nc(N)c(-c2ccc(Cl)c(Cl)c2)c(CP(Cl)(Cl)(Cl)Br)n1 ; growth inhibition observed: -1% (inactive)

Sample COc1ccc(OC)c(/C=C/[N+](=O)[O-])c1 ; growth inhibition observed: -1% (inactive)

Sample Nc1nnc(N)n1-n1c(N)nnc1N ; growth inhibition observed: 0% (inactive)

###

- ASSAY INFO: NCI Yeast Anticancer Drug Screen. Data for the cln2 rad14 strain (AID 165);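 also: 0% = growth equal to vehicle treated cultures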
- TEST CONTEXT: S. cerevisiae cln2 rad14 strain, at 5.0 µM (retest, dose inferred, filed as 0.5), hits give high values
About 79,000 compounds went through this panel and 15% of them were active in at least one assay; those are over-represented in the sample as a whole.
Binary classification by growth inhibition, with 30% as an inclusive lower bound for 1.0; all other cases are 0.0.

// below: answered compounds
[[record]]
compound = "CN1CN(c2ccccc2)C2(CCN(C3Nc4ccccc4O3)CC2)C1=O (stereo unspecified)"
class_name = 1.0

[[record]]
compound = "Nc1nc(N)c(-c2ccc(Cl)c(Cl)c2)c(CCc2ccc(CNC(=O)Nc3ccc(S(=O)(=O)F)cc3)cc2)n1"
class_name = 0.0

[[record]]
compound = "COC1(OC)C(Cl)=C(Cl)C(Cl)=C1Cl"
class_name = 0.0

[[record]]
compound = "O=P1(NCCCl)OC(c2ccccc2)=CCN1CCCl (stereo unspecified)"
class_name = 0.0

[[record]]
compound = "CNC(=O)ON(C(C)=O)C(=O)NC"
class_name = 1.0

[[record]]
compound = "N#C[S-].[Nd+3].c1cnc2c(c1)ccc1cccnc12.c1cnc2c(c1)ccc1cccnc12.c1cnc2c(c1)ccc1cccnc12"
class_name = 1.0

[[record]]
compound = "[C-]#[O+].[C-]#[O+].[C-]#[O+].[Cl-].[Ru+2].c1ccc([PH+](CC[PH+](c2ccccc2)c2ccccc2)CC[PH+](c2ccccc2)c2ccccc2)cc1"
class_name = 1.0

[[record]]
compound = "CC/C(=C/c1ccc2c(c1)OCO2)[N+](=O)[O-]"
class_name = 0.0


Next up:
INPUT: Please indicate if the recorded growth inhibition for CNC(=O)Oc1ccccc1/C=N\Sc1ccc(Cl)cc1 meets or exceeds 30%.
OUTPUT: 0.0
